Give pIC50 for every item shown.
targetOfAssay: UniProt:Q12809
Sequence (Q12809 whole entry): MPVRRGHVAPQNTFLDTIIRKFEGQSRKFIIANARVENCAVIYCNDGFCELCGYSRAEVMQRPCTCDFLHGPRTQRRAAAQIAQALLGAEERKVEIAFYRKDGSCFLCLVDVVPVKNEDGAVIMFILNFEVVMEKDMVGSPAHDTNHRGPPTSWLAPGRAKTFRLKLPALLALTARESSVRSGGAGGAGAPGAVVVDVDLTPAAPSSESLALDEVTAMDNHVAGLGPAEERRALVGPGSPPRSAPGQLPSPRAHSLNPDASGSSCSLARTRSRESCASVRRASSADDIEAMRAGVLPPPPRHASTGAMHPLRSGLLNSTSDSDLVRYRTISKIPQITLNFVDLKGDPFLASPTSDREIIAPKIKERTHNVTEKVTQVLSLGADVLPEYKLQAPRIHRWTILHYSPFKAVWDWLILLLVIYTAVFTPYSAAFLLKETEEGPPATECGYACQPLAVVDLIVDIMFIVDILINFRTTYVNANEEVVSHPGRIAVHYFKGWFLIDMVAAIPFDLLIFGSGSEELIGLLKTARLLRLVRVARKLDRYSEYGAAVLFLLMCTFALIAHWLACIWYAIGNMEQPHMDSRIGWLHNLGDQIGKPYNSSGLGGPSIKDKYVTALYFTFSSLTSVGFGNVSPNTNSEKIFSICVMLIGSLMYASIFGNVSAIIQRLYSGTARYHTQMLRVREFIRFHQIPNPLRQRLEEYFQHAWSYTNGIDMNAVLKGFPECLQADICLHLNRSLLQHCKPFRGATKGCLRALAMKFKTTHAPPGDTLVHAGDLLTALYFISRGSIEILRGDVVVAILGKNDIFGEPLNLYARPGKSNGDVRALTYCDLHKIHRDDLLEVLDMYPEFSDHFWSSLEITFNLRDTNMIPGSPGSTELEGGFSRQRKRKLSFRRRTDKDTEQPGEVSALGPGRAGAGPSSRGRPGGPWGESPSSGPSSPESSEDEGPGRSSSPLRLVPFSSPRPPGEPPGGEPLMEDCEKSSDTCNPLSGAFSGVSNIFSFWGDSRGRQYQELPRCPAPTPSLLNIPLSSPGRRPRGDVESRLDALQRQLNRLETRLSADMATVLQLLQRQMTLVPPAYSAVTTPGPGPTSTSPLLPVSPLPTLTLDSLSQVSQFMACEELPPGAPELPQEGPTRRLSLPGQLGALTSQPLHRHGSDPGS
Numbers only, as −log10 of the molar value.

Cn1cc(-c2ccc3c(c2)[nH]c2c(C(N)=O)cnc(NC4CCCCC4)c23)cn1
6.21

For each listed entry, give its pIC50.
1. NC(=O)c1cnc(N[C@H](C2CC2)C(F)(F)F)c2c1[nH]c1cc(-c3ccc(N)nc3)ccc12
2. Cn1cc(-c2ccc3c(c2)[nH]c2c(C(N)=O)cnc(NC(C4CC4)C4CC4)c23)cn1

Out:
1. 6.12
2. 5.77

----------
testName: Clearance in rat at 1 mg/kg, iv
Format: ADME, organism-based
Set-up: dose 1 mg/kg, route intravenous
condition: in vivo
measurementName: clearance (mL/min/kg)
One number for each entry, in mL/min/kg.

Example compounds with recorded clearance:
NC(=O)c1cnc(N[C@H](C2CC2)C(F)(F)F)c2c1[nH]c1cc(-c3ccc(N)nc3)ccc12
6
NC(=O)c1cnc(N[C@H](C2CC2)C(F)(F)F)c2c1[nH]c1cc(-c3cnc(N)nc3)ccc12
7
Cn1cc(-c2ccc3c(c2)[nH]c2c(C(N)=O)cnc(NC(C4CC4)C4CC4)c23)cn1
22
C[C@H](Nc1ncc(C(N)=O)c2[nH]c3cc(-c4cnn(C)c4)ccc3c12)C1CC1
44
NC(=O)c1cnc(N[C@H](C2CC2)C(F)(F)F)c2c1[nH]c1cc(-c3cn[nH]c3)ccc12
21
Cn1cc(-c2ccc3c(c2)[nH]c2c(C(N)=O)cnc(N[C@H](C4CC4)C(F)(F)F)c23)cn1
14

// for each compound below, give its clearance
1. NC(=O)c1cnc(NC(C2CC2)C2CC2)c2c1[nH]c1cc(-c3cn[nH]c3)ccc12
2. NC(=O)c1cnc(NC(C2CC2)C2CC2)c2c1[nH]c1cc(-c3cnc(N)nc3)ccc12

Out:
[31, 21]
